Provide the recorded T/C for the entries that follow.
test system: BDF1 mice, P388 leukemia ip, median survival T/C; experiment: NCI In Vivo Anticancer Drug Screen. Data for tumor model P388 Leukemia (intraperitoneal) in B6D2F1 (BDF1) mice; settings: endpoint: median survival time; dose: 25.0 mg/kg/injection; schedule: Q01DX009 (ip); vehicle: saline with Tween-80; higher = longer survival
Toxic doses and inconclusive results are not listed.

# compound, target, measured_quantity, reported_value
data = [
    ("O=c1nc(Oc2ccccc2)nc2c3ccccc3ccn12", "BDF1 mice, P388 leukemia ip, median survival T/C", "T/C", "102 % of control"),
    ("CN(C)N=Nc1cc(Cl)cc(C(N)=O)c1Cl", "BDF1 mice, P388 leukemia ip, median survival T/C", "T/C", "104 % of control"),
    ("Cc1ccc(C(=O)O)cc1S(=O)(=O)Cl", "BDF1 mice, P388 leukemia ip, median survival T/C", "T/C", "104 % of control"),
    ("C=CCN(CC=C)c1ncnc2[nH]ncc12", "BDF1 mice, P388 leukemia ip, median survival T/C", "T/C", "100 % of control"),
    ("CCCCS(=O)/C=C\\C(=O)NCCC (configuration not stated)", "BDF1 mice, P388 leukemia ip, median survival T/C", "T/C", "100 % of control"),
]

Below are some compounds; for each one, tell me its T/C.
1. CCC[n+]1ccc(/C=N\NC(N)=S)c2ccccc21
2. COC(=O)CCC1([N+](=O)[O-])CCCCC1

Key:
94 % of control
87 % of control

====

tested on: BDF1 mice, P388 leukemia ip, median survival T/C; assay: NCI In Vivo Anticancer Drug Screen. Data for tumor model P388 Leukemia (intraperitoneal) in B6D2F1 (BDF1) mice; details: endpoint: median survival time; dose: 200.0 mg/kg/injection; schedule: Q01DX009 (ip); vehicle: saline with Tween-80
Inconclusive results and toxic doses are left out. The calls were made as follows: active = survival T/C of 150% or more; inactive = T/C below 125% in these data.
// classify into label 1 for active, label 0 for inactive

The examples below pair each entry with its known result.
# compound, classification
measured = [
    ("O=C1CCCCc2ccc(O)cc21", "label 0"),
    ("c1ccc(-c2nnc3ncccn23)cc1", "label 0"),
    ("C=C(C)C(=O)Oc1ccc([N+](=O)[O-])cc1", "label 0"),
    ("Nc1cc(S(=O)(=O)c2ccc(O)c(N)c2)ccc1O", "label 0"),
    ("COc1cc(O)c2c(c1O)C(=O)c1cc(C)ncc1C2=O", "label 0"),
]

Exercise: Just curious, what result did CC[C@H](CC[C@@H](C)[C@H]1CC[C@H]2[C@@H]3CC[C@H]4C[C@@H](O)CC[C@]4(C)[C@H]3CC[C@]12C)C(C)C get here?
Key: label 0

Exercise: Just curious, what result did O=C1CNC(=O)c2cc(N=Cc3cc(Br)ccc3O)ccc2N1 get here?
Key: label 0

====

system: BDF1 mice, P388 leukemia ip, median survival T/C; test: NCI In Vivo Anticancer Drug Screen. Data for tumor model P388 Leukemia (intraperitoneal) in B6D2F1 (BDF1) mice; settings: endpoint: median survival time; dose: 400.0 mg/kg/injection; schedule: Q04DX003 (ip); vehicle: saline with Tween-80; higher = longer survival
Inconclusive results and toxic doses are left out.
measured_quantity: T/C

The following compounds have reported results that may help.
# compound, T/C
records = [
    ("CCc1ccc(C(=O)C2CC2)cc1", "104 % of control"),
    ("CC1(c2cccs2)NC(=O)N(Cl)C1=O (stereo not given)", "107 % of control"),
    ("CCCN(Cc1ccc(CN(CCC)C(=O)C(Cl)Cl)cc1)C(=O)C(Cl)Cl", "88 % of control"),
    ("OC(CBr)c1ccc(Cl)cc1 (stereo not given)", "95 % of control"),
    ("CCC1C/C(=C\\NC(N)=O)C(=O)O1 (stereo not given)", "86 % of control"),
    ("c1ccc2c(c1)C1CCC2c2ccccc21", "100 % of control"),
    ("O=C1CC(c2ccc([N+](=O)[O-])cc2)=Nc2ccccc2N1", "114 % of control"),
    ("Cc1nc(N)c2nc(SCc3ccc(Cl)cc3)c(N)nc2n1", "97 % of control"),
    ("CC(=O)c1ccccc1[N+](=O)[O-]", "100 % of control"),
]

Let us examine a further case.
GET /value?item= OC1OC(COC(c2ccccc2)(c2ccccc2)c2ccccc2)C(O)C(O)C1O (stereo not given) &field=T/C returns 110 % of control

====

Tested on: BDF1 mice, P388 leukemia ip, median survival T/C
Assay: NCI In Vivo Anticancer Drug Screen. Data for tumor model P388 Leukemia (intraperitoneal) in B6D2F1 (BDF1) mice
Conditions: endpoint: median survival time; dose: 100.0 mg/kg/injection; schedule: Q01DX009 (ip); vehicle: saline with Tween-80; higher = longer survival
Method: The antitumor activity of compounds was measured in mice bearing transplantable tumors. Survival or tumor size were measured and the results are expressed as the measurement made in the treated group (T) divided by the measurement made in the vehicle treated control group (C). The tumor model used in this assay is P388 Leukemia (intraperitoneal) in B6D2F1 (BDF1) mice
Inconclusive results and toxic doses are left out.
measured_quantity: T/C

Below are some compounds; for each one, tell me its T/C.
1. O=C(CBr)c1ccc(/C=C/c2ccc(Cl)cc2)cc1
2. C/C(Cc1ccccc1)=N\O
3. NC(C(=O)O)C(O)c1ccc2c(c1)OCO2 (centres undefined)
4. CSc1nc(N)nc2nc[nH]c12

Key:
120 % of control
100 % of control
95 % of control
104 % of control

====

Provide the recorded T/C for the entries that follow.
system: BDF1 mice, P388 leukemia ip, median survival T/C; experiment: NCI In Vivo Anticancer Drug Screen. Data for tumor model P388 Leukemia (intraperitoneal) in B6D2F1 (BDF1) mice; settings: endpoint: median survival time; dose: 100.0 mg/kg/injection; schedule: Q01DX009 (ip); vehicle: Klucel (hydroxypropylcellulose) (HPC); higher = longer survival
Inconclusive results and toxic doses are left out.

The following compounds have reported results that may help.
# compound, T/C
records = [
    ("ClC(Cl)C(Cl)(Cl)C(Cl)(Cl)Cl", "95 % of control"),
    ("C=CCSc1nc2ccccc2c(=O)n1-c1cc(OC)c(Cl)cc1OC", "96 % of control"),
    ("Cc1cc(N(C)C)ccc1C=O", "100 % of control"),
    ("Cn1c(-c2ccccc2)c(C(=O)O)c(C(=O)O)c1-c1ccccc1", "90 % of control"),
    ("c1coc(-c2ncnc3c2Cc2ccccc2-3)c1", "109 % of control"),
    ("COc1cc(N(C)C)c(OC)cc1C=O", "90 % of control"),
]

Below are some compounds; for each one, tell me its T/C.
1. O=c1[nH]c2cc(Cl)c(Cl)cc2o1
2. FC(F)(F)c1cc(NC2=NCCN=C(Nc3cc(C(F)(F)F)cc(C(F)(F)F)c3)SS2)cc(C(F)(F)F)c1

Key:
["115 % of control", "96 % of control"]

====

Provide the recorded T/C for the entries that follow.
test system: BDF1 mice, P388 leukemia ip, median survival T/C; assay: NCI In Vivo Anticancer Drug Screen. Data for tumor model P388 Leukemia (intraperitoneal) in B6D2F1 (BDF1) mice; settings: endpoint: median survival time; dose: 400.0 mg/kg/injection; schedule: Q04DX003 (ip); vehicle: saline with Tween-80; higher = longer survival
Inconclusive results and toxic doses are left out.

Below are some molecules; for each one, tell me its T/C.
1. CCCCCCCCC(C(=O)c1ccccc1)C(O)(C(F)(F)F)C(F)(F)F (stereo not drawn)
2. CC(SC(C)c1ccccc1)c1ccccc1 (stereo not drawn)
3. COC1/C=C/OC2(C)Oc3c(C)c(O)c4c(O)c(c(/C=N/NC5CCCCCCCCCCCCCC5)c(O)c4c3C2=O)NC(=O)/C(C)=C\C=C\C(C)C(O)C(C)C(O)C(C)C(OC(C)=O)C1C (stereo not drawn)
4. CC(=O)c1c(C)oc(C)c1C(C)=O
5. c1ccc2c3c(ccc2c1)Sc1ccc2ccccc2c1N3
6. O=c1[nH]cnc2n[nH]nc12
7. CCOC(=O)C1C(=O)NC(=O)CC1C (stereo not drawn)

Key:
115 % of control
116 % of control
90 % of control
96 % of control
90 % of control
104 % of control
107 % of control

GET /value?item= CC1(C)O[C@@H]2C[C@H]3[C@@H]4CCC5=CC(=O)CC[C@]5(C)[C@@]4(F)[C@@H](O)C[C@]3(C)[C@]2(C(=O)CO)O1 &field=T/C returns 100 % of control

====

tested on: BDF1 mice, P388 leukemia ip, median survival T/C; assay: NCI In Vivo Anticancer Drug Screen. Data for tumor model P388 Leukemia (intraperitoneal) in B6D2F1 (BDF1) mice; conditions: endpoint: median survival time; dose: 400.0 mg/kg/injection; schedule: Q01DX001 (ip); vehicle: saline with Tween-80; higher = longer survival
Toxic doses and inconclusive results are not listed.
measured_quantity: T/C

# compound, target, T/C
measured = [
    ("COC(=O)C(CC(O)c1ccccc1)N1CCOCC1 (stereo not drawn)", "BDF1 mice, P388 leukemia ip, median survival T/C", "100 % of control"),
]

Below are some compounds; for each one, tell me its T/C.
1. COc1cccc(CC2c3ccccc3Nc3ccccc32)c1
2. CC1(C)NC(=O)NC1=O

Key:
["89 % of control", "100 % of control"]
